tested on: PC-3; experiment: Cytotoxicity against human PC-3 cells assessed as inhibition of cell growth and measured after 72 hrs resazurin reduction assay; type: functional, cell-based; details: PC-3, 72 h
readout-type: IC50

compound	obs-value
CC(=O)O[C@@]12CO[C@@H]1C[C@H](O)[C@@]1(C)C(=O)[C@H](O)C3=C(C)[C@@H](OC(=O)[C@H](O)[C@@H](NC(=O)OC(C)(C)C)c4ccccc4)C[C@@](O)([C@@H](OC(=O)c4ccccc4)[C@H]21)C3(C)C [DOCETAXEL ANHYDROUS]	0.0006 µM
COc1cc([C@H]2c3cc(O)c(OC)cc3C=C3C(=O)OC[C@H]4O[C@@](CO)(O[C@H]5O[C@H](COC(=O)/C=C/c6ccc(O[C@@H]7O[C@@H](C)[C@H](O)[C@@H](O)[C@H]7O)cc6)[C@@H](O)[C@H](O)[C@H]5O)[C@@H](OC(=O)[C@@H]32)[C@@H]4O)ccc1O	> 10 µM
O=C(OC(Cc1ccc(O)c(O)c1)C(=O)O)C1=Cc2cc(O)c(O)cc2[C@H](c2ccc(O)c(O)c2)[C@H]1C(=O)O[C@@H](Cc1ccc(O)c(O)c1)C(=O)O (stereo partly specified)	> 10 µM
COc1cccc2c1C(=O)c1c(O)c3c(c(O)c1C2=O)C[C@@](O)(C(=O)CO)C[C@@H]3O[C@H]1C[C@H](N)[C@H](O)[C@H](C)O1 [DOXORUBICIN]	0.01 µM
O=C(O[C@H](Cc1ccc(O)c(O)c1)C(=O)O)c1cc(-c2ccc(O)c(O)c2)c2cc(O)c(O)cc2c1	> 10 µM
O=C(/C=C/c1ccc(O)c(O)c1)O[C@H](Cc1ccc(O)c(O)c1)C(=O)O [ROSMARINIC ACID]	> 10 µM

* * *

assay: Cytotoxicity against human WPMY-1 cells assessed as inhibition of cell growth and measured after 72 hrs resazurin reduction assay; format: toxicity, cell-based; conditions: WPMY-1 cells
readout-type: IC50 at 72 h

compound	obs-value
O=C(O[C@H](Cc1ccc(O)c(O)c1)C(=O)O)c1cc(-c2ccc(O)c(O)c2)c2cc(O)c(O)cc2c1	> 10 µM
O=C(OC(Cc1ccc(O)c(O)c1)C(=O)O)C1=Cc2cc(O)c(O)cc2[C@H](c2ccc(O)c(O)c2)[C@H]1C(=O)O[C@@H](Cc1ccc(O)c(O)c1)C(=O)O (stereo partly drawn)	> 10 µM
O=C(/C=C/c1ccc(O)c(O)c1)O[C@H](Cc1ccc(O)c(O)c1)C(=O)O [ROSMARINIC ACID]	> 10 µM

Numbers sourced from ChEMBL document CHEMBL5137125.
